Data credit: patent US20260109776A1

# target of assay: T1, cynomolgus monkey CD40 (cynomolgus monkey, UniProt P25942 21-193 (human entry), limits assumed)
# T1 chain: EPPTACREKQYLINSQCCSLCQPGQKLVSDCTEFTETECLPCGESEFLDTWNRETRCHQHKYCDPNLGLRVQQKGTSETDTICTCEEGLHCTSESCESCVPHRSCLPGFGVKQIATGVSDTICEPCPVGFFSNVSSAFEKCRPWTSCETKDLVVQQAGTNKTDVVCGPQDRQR
# assay summary: Octet
# Description: The binding affinity of anti-human CD40 antibodies to human and cynomolgus monkey CD40 was measured by Octet assay (Table 3), quantifying association rate (Kon), disassociation rate (Kdis), and equilibrium binding constant (KD). Cross-reactivity of anti-CD40 antibodies to related TNF receptor superfamily (TNFRSF) members was evaluated by expressing human TNFR1, TNFR2, TNFR10, or TNFR14 on HEK293 cells by transient transfection of expression vectors encoding these genes. […]
The following binders are listed with their measured pKd values.
Formally, pKd is defined as -log10 of the concentration c, with c in mol/L.

[
  {
    "binder": "36F3 (antibody, IgG4, V domains shown, also called 4891-1) VH: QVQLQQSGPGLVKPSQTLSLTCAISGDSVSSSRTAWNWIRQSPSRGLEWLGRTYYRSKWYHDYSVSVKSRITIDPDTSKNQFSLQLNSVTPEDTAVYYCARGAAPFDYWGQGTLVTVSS VL: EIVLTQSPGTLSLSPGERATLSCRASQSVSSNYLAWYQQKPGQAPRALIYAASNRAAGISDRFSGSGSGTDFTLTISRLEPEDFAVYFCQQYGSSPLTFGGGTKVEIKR",
    "pKd": 8.40
  },
  {
    "binder": "4G7 (antibody, IgG4, V domains shown, also called 4869-1) VH: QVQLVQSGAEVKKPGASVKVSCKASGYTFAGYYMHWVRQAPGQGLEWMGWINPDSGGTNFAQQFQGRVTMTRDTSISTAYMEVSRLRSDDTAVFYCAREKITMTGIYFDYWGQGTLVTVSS VL: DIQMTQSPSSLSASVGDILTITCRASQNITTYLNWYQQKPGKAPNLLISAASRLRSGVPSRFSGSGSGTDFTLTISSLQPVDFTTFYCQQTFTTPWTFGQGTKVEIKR",
    "pKd": 8.76
  },
  {
    "binder": "30A12 (antibody, IgG4, V domains shown, also called 4878-1) VH: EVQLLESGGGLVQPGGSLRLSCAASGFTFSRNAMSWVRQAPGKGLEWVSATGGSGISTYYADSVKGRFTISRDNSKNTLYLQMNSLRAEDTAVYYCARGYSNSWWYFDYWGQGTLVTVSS VL: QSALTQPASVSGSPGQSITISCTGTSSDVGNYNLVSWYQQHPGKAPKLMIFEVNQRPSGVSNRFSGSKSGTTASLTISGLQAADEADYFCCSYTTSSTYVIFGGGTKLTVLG",
    "pKd": 9.25
  },
  {
    "binder": "29H10 (antibody, V domains shown, also called 4877-1) VH: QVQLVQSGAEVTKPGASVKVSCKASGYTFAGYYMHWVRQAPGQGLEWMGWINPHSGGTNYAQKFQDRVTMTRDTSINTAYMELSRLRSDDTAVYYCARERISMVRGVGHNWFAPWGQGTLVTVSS VL: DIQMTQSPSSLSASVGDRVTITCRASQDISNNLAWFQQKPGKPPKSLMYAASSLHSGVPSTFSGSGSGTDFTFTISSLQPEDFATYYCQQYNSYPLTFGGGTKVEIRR",
    "pKd": 9.41
  },
  {
    "binder": "37A6 (antibody, IgG4, V domains shown, also called 4865-1) VH: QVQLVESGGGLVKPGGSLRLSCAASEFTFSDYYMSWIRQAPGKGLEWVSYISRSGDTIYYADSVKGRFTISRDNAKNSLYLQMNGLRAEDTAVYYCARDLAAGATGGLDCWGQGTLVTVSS VL: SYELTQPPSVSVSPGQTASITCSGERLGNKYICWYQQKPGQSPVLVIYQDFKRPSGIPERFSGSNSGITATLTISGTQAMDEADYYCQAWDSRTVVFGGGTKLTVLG",
    "pKd": 9.14
  },
  {
    "binder": "39C2 (antibody, IgG4, V domains shown, also called 4887-1) VH: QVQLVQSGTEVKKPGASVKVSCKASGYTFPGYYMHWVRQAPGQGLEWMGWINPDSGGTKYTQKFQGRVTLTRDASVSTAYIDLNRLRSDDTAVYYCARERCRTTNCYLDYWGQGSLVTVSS VL: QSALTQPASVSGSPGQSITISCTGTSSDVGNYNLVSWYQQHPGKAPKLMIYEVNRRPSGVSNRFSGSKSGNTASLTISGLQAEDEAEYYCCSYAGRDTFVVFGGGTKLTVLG",
    "pKd": 9.14
  },
  {
    "binder": "35F11 (antibody, IgG4, V domains shown, also called 4868-1) VH: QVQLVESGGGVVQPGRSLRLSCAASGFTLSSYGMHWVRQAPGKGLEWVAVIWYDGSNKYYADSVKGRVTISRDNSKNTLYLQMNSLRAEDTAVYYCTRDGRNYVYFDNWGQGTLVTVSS VL: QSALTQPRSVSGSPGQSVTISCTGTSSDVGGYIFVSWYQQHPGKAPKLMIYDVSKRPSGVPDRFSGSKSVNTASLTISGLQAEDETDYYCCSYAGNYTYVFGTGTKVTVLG",
    "pKd": 9.21
  }
]

Continue with the next binder.
Give its pKd value. Item: 33H6 (antibody, IgG4, V domains shown, also called 4883-1) VH: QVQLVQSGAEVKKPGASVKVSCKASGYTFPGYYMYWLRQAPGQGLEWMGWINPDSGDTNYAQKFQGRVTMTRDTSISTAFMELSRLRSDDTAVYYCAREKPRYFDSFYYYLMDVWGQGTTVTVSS VL: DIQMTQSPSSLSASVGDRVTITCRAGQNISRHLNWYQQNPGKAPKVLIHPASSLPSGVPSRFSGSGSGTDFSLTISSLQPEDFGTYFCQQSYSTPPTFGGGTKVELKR
8.98
